Source listed as the kinase profiling compilation of Christmann-Franck et al. (2016).

target: MAPK10 (human) (UniProt P53779); assay: radiometric filter-binding kinase assay, Kinase HotSpot; conditions: compound 0.5 µM; ATP 10 µM
Sequence (P53779 whole entry, looked up): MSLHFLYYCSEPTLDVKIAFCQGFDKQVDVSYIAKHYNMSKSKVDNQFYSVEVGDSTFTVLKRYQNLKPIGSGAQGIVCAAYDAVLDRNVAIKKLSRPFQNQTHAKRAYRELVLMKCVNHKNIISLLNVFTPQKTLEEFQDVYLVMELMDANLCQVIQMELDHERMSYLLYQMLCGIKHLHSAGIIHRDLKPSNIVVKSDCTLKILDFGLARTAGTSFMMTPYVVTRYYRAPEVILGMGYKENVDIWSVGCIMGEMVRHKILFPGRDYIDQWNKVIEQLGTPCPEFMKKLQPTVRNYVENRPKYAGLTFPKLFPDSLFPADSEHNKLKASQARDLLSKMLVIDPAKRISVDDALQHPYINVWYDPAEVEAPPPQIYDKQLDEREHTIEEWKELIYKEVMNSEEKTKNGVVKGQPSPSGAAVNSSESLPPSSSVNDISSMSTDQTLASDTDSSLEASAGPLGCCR
measured property: residual activity (%)
Write the value in % as a bare number.

Use these answered entries as a reference point.
[[record]]
smiles_string = "Fc1ccc(-c2nc3n(c2-c2ccncc2)CCS3)cc1"
measurement_target = "MAPK10 (human) (UniProt P53779)"
measured_property = "residual activity"
units_label = "%"
measured = 116

[[record]]
smiles_string = "CN(C)S(=O)(=O)c1ccc2c(c1)/C(=C/c1cc3c([nH]1)CCCC3)C(=O)N2"
measurement_target = "MAPK10 (human) (UniProt P53779)"
measured_property = "residual activity"
units_label = "%"
measured = 105

[[record]]
smiles_string = "N#C/C(=C\\c1ccc(O)c(O)c1)C(=O)NCc1ccccc1"
measurement_target = "MAPK10 (human) (UniProt P53779)"
measured_property = "residual activity"
units_label = "%"
measured = 98


Request: Which measured residual activity belongs to O=C1c2ccccc2-c2nc3nnnn3nc21 , tested on MAPK10 (human) (UniProt P53779)?
Result: 55

Request: Repeat with C[C@@H]1CCN(C(=O)CC#N)C[C@@H]1N(C)c1ncnc2[nH]ccc12
Result: 100

Request: # iterate: COc1cc2ncnc(Nc3ccc(OCc4ccccc4)cc3)c2cc1OC
Result: 84.5

Request: Check N#Cc1c[nH]c2c[nH]/c(=N\Cc3cccnc3)cc2/c1=N\c1ccc(F)c(Cl)c1 too.
Result: 95

Request: Here is the next compound: COc1ccc2c(c1)/C(=C/c1cnc[nH]1)C(O)=N2
Result: 105

Request: // same read-out, input: Cc1nc(-c2ccccc2)c(-c2ccncc2)o1
Result: 101

Request: Please give the result for O=C1Nc2ccc(Br)cc2/C1=C\c1cc2c([nH]1)CCCC2 too.
Result: 98.7

Request: Try COc1ccc2c(c1)c(C1=C(c3c[nH]c4ccccc34)C(=O)NC1=O)cn2CCCN(C)C next.
Result: 88.8

Request: # repeat for COc1ccc(Cl)cc1NC(=O)Nc1cc(C)nc2ccccc12
Result: 86

* * *

target: AXL (human) (UniProt P30530); assay: radiometric filter-binding kinase assay, Kinase HotSpot; conditions: compound 0.5 µM; ATP 10 µM
Sequence (P30530 whole entry, looked up): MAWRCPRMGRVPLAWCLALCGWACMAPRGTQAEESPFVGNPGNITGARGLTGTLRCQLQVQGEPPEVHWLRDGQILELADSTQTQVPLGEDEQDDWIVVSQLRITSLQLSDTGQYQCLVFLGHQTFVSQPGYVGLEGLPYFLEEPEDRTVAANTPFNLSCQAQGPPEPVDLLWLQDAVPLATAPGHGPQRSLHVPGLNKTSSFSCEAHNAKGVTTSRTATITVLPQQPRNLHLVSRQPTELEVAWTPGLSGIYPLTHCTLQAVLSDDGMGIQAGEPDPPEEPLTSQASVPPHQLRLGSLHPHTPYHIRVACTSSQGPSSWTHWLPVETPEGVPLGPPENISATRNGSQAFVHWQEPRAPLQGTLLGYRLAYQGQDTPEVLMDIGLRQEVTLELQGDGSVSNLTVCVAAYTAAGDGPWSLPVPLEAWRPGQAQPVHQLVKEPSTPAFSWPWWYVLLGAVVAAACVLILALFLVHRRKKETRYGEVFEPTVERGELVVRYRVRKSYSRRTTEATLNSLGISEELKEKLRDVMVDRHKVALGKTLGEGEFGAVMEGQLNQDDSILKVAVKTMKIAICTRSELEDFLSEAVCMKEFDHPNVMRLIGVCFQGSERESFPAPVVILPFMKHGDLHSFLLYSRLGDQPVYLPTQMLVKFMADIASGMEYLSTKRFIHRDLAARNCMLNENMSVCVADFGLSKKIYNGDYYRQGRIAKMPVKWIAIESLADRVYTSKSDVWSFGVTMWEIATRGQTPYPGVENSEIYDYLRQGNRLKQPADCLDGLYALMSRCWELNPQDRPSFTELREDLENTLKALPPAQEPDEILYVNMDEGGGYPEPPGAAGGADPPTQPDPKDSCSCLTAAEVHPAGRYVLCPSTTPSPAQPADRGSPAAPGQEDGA
Recorded residual activity, one value per entry.
Entry rule: numbers only, all in %.

[[record]]
smiles_string = "N#Cc1c[nH]c2c[nH]/c(=N\\Cc3cccnc3)cc2/c1=N\\c1ccc(F)c(Cl)c1"
measured = 103

[[record]]
smiles_string = "C[C@@H]1CCN(C(=O)CC#N)C[C@@H]1N(C)c1ncnc2[nH]ccc12"
measured = 97.7

[[record]]
smiles_string = "c1ccc2c(-c3ccncc3)c[nH]c2c1"
measured = 99.8

[[record]]
smiles_string = "Cn1c2ccccc2c2c3c(c4c5ccccc5n(CCC#N)c4c21)CNC3=O"
measured = 102

[[record]]
smiles_string = "COc1ccc(S(=O)(=O)N(CCO)c2ccccc2CN(C)C/C=C/c2ccc(Cl)cc2)cc1"
measured = 104


Request: Find the recorded residual activity belonging to COc1ccc(C(=O)Nc2sc3c(c2C(N)=O)CCCC3)cc1OC and report it.
Result: 84.4

Request: Would you mind doing COc1cc(Nc2c(C#N)cnc3cc(OCCCN4CCN(C)CC4)c(OC)cc23)c(Cl)cc1Cl as well?
Result: 37.6

Request: Follow-up entry: CCCCc1c(-c2ccc(OC)cc2)[nH]c2nccnc12
Result: 110

* * *

Measured residual activity values are reported for all entries that follow.
target: PRKCA (human); test: radiometric filter-binding kinase assay, Kinase HotSpot; conditions: compound 0.5 µM; ATP 10 µM
Write down the numeric answer in % and omit the unit.

Known results for compounds:
[[record]]
smiles_string = "COc1ccc(C(=O)Nc2sc3c(c2C(N)=O)CCCC3)cc1OC"
measured = 96.6

[[record]]
smiles_string = "COc1cc(Nc2c(C#N)cnc3cc(OCCCN4CCN(C)CC4)c(OC)cc23)c(Cl)cc1Cl"
measured = 49.5

[[record]]
smiles_string = "O=C(c1cc2cc(O)ccc2[nH]1)c1cc2cc(O)ccc2[nH]1"
measured = 84.1

[[record]]
smiles_string = "CN(C)S(=O)(=O)c1ccc2c(c1)/C(=C/c1cc3c([nH]1)CCCC3)C(=O)N2"
measured = 94.9

[[record]]
smiles_string = "COc1ccc2c(c1)c(C1=C(c3c[nH]c4ccccc34)C(=O)NC1=O)cn2CCCN(C)C"
measured = 3.14

[[record]]
smiles_string = "O=C1Nc2ccc(Br)cc2/C1=C\\c1cc2c([nH]1)CCCC2"
measured = 102

[[record]]
smiles_string = "CCCCc1c(-c2ccc(OC)cc2)[nH]c2nccnc12"
measured = 92.7

[[record]]
smiles_string = "NC(=O)c1cccc(-c2cc(Nc3ccc(OC(F)(F)F)cc3)ncn2)c1"
measured = 77.4

[[record]]
smiles_string = "CN(C)c1ccc(/C=C2\\C(=O)Nc3ccccc32)cc1"
measured = 94.5


Switching to the query record.
Request: Using the record for C[C@@H]1CCN(C(=O)CC#N)C[C@@H]1N(C)c1ncnc2[nH]ccc12 , report its residual activity.
Result: 78.7

* * *

target: AURKB (human) (UniProt Q96GD4); experiment: radiometric filter-binding kinase assay, Kinase HotSpot; details: compound 0.5 µM; ATP 10 µM
Sequence (Q96GD4 whole entry, looked up): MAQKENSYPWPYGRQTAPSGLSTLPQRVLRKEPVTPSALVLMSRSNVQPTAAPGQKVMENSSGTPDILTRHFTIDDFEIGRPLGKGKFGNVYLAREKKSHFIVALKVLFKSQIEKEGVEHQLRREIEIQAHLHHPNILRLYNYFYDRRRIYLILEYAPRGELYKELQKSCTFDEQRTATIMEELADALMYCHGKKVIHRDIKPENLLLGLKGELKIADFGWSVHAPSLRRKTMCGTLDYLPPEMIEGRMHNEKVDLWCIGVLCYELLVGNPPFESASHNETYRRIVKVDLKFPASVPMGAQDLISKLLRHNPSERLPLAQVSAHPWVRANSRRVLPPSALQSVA
# residual activity values compiled below
Please state the value followed by its unit.

Known results for compounds:
[[record]]
smiles_string = "O=C1Nc2ccc(Br)cc2/C1=C\\c1cc2c([nH]1)CCCC2"
measured_property = "residual activity"
measured = "56.7%"

[[record]]
smiles_string = "CN(C)S(=O)(=O)c1ccc2c(c1)/C(=C/c1cc3c([nH]1)CCCC3)C(=O)N2"
measured_property = "residual activity"
measured = "11%"

[[record]]
smiles_string = "c1ccc2c(-c3ccncc3)c[nH]c2c1"
measured_property = "residual activity"
measured = "95.9%"

[[record]]
smiles_string = "N#Cc1c[nH]c2c[nH]/c(=N\\Cc3cccnc3)cc2/c1=N\\c1ccc(F)c(Cl)c1"
measured_property = "residual activity"
measured = "90.1%"

[[record]]
smiles_string = "N#C/C(=C\\c1ccc(O)c(O)c1)C(=O)NCc1ccccc1"
measured_property = "residual activity"
measured = "94.4%"


Request: residual activity lookup needed for CC(C)(C)c1cc(C=C(C#N)C#N)cc(Br)c1O , thanks.
Result: 97.1%

Request: # iterate: CN(C)c1ccc(/C=C2\C(=O)Nc3ccccc32)cc1
Result: 61.4%

Request: Then COc1ccc(S(=O)(=O)N(CCO)c2ccccc2CN(C)C/C=C/c2ccc(Cl)cc2)cc1 ?
Result: 106%

Request: Same question for C[C@@H]1CCN(C(=O)CC#N)C[C@@H]1N(C)c1ncnc2[nH]ccc12 please.
Result: 99.2%

Request: Ok, now Cc1cncc2cccc(S(=O)(=O)N3CCCN(C(=O)CN)C[C@H]3C)c12
Result: 34.9%

Request: Can you handle NC(=O)c1cccc(-c2cc(Nc3ccc(OC(F)(F)F)cc3)ncn2)c1 next?
Result: 96.9%

* * *

molecular target: BMX (human); assay: radiometric filter-binding kinase assay, Kinase HotSpot; conditions: compound 0.5 µM; ATP 10 µM
measured property: residual activity (%)
Lab book: enter the figure in %, no units written.

Consider the worked cases shown below.
[[record]]
smiles_string = "COc1cc2ncnc(Nc3ccc(Oc4ccccc4)cc3)c2cc1OC"
measurement_target = "BMX (human)"
measured = 76.1

[[record]]
smiles_string = "CN(C)c1ccc(/C=C2\\C(=O)Nc3ccccc32)cc1"
measurement_target = "BMX (human)"
measured = 92.2

[[record]]
smiles_string = "NC(=O)c1cccc(-c2cc(Nc3ccc(OC(F)(F)F)cc3)ncn2)c1"
measurement_target = "BMX (human)"
measured = 107


Request: I am curious: what residual activity value has been reported for COc1ccc(S(=O)(=O)N(CCO)c2ccccc2CN(C)C/C=C/c2ccc(Cl)cc2)cc1 ?
Result: 101

Request: Another compound to look at: Cc1nc(-c2ccccc2)c(-c2ccncc2)o1
Result: 102

Request: Same thing, different compound: O=C1c2ccccc2-c2nc3nnnn3nc21
Result: 79

Request: Field entry: Fc1ccc(-c2nc3n(c2-c2ccncc2)CCS3)cc1
Result: 104

Request: Same question, COc1ccc2c(c1)/C(=C/c1cnc[nH]1)C(O)=N2 this time
Result: 100

Request: Try the compound CCCCc1c(-c2ccc(OC)cc2)[nH]c2nccnc12
Result: 82.2

* * *

target: CSNK1A1 (human) (UniProt P48729); test: radiometric filter-binding kinase assay, Kinase HotSpot; conditions: compound 0.5 µM; ATP 10 µM
Sequence (P48729 whole entry, looked up): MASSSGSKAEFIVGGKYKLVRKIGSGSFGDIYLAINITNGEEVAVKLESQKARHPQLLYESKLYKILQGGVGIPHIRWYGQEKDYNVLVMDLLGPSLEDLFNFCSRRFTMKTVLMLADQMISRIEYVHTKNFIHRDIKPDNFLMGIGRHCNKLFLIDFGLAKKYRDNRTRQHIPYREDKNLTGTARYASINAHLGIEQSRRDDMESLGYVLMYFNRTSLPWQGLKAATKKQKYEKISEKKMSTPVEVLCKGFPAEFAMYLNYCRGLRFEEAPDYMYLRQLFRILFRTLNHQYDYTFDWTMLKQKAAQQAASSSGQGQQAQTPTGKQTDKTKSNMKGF
Reported residual activity values for a set of molecules
Express your answer in %, writing the number without its unit.

Please review the following examples before continuing.
[[record]]
smiles_string = "O=C1NC(=O)c2c1c1c3ccccc3[nH]c1n1cncc21"
measured_property = "residual activity"
measured = 51.6

[[record]]
smiles_string = "Cc1cncc2cccc(S(=O)(=O)N3CCCN(C(=O)CN)C[C@H]3C)c12"
measured_property = "residual activity"
measured = 98.9


Request: What measured residual activity goes with CN(C)S(=O)(=O)c1ccc2c(c1)/C(=C/c1cc3c([nH]1)CCCC3)C(=O)N2 ?
Result: 91.7

Request: Cool, now CN(C)c1ccc(/C=C2\C(=O)Nc3ccccc32)cc1
Result: 105
